- TARGET OR SYSTEM: hT1R1/hT1R3 umami receptor (Homo sapiens, UniProt Q7RTX0+Q7RTX1)
- Construct: expressed in transfected cells; host or cells: HEK293 derivative stably expressing Gα15, clone I-17, expression induced with mifepristone
- Sequence (Q7RTX1 21-841): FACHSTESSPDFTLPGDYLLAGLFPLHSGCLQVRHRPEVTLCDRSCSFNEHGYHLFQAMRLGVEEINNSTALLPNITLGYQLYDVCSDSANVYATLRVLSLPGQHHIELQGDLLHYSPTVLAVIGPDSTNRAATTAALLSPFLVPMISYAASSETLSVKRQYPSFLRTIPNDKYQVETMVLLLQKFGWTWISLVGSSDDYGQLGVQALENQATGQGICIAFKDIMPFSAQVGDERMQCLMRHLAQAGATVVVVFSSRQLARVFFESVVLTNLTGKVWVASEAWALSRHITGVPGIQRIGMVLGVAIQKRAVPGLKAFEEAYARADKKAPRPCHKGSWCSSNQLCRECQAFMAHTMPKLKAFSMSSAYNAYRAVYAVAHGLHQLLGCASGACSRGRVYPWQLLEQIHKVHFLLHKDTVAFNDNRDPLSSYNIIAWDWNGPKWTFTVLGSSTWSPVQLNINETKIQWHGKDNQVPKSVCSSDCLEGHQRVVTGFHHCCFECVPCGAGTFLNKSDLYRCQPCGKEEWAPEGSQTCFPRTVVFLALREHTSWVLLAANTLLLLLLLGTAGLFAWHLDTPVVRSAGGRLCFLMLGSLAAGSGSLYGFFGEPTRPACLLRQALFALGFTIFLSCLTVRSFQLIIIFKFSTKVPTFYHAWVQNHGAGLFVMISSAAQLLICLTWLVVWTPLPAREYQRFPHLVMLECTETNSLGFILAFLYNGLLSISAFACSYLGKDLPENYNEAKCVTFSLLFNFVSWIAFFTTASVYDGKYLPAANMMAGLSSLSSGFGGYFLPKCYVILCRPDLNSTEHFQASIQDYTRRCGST
- Sequence (Q7RTX0 21-852): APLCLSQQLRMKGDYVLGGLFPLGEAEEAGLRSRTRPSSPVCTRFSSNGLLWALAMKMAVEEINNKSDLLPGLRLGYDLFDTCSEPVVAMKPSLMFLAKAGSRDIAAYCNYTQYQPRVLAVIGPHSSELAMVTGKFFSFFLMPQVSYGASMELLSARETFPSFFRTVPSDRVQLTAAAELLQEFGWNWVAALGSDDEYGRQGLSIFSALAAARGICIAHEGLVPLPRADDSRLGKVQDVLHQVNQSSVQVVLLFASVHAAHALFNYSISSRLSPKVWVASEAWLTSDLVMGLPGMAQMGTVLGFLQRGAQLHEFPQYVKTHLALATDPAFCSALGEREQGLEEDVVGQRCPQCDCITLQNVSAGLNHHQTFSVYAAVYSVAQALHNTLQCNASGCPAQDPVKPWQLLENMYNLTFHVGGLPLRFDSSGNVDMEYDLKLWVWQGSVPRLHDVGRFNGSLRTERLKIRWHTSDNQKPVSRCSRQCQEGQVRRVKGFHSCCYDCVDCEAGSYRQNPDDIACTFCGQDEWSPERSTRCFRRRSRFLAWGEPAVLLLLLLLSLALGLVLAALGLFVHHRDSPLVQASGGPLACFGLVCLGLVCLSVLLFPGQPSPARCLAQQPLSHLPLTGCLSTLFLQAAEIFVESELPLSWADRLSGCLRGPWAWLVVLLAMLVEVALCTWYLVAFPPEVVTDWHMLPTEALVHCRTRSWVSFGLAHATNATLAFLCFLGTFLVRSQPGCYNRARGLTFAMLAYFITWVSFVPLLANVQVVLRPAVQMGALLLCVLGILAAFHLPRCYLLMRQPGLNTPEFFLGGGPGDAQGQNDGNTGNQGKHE
- TEST DETAILS: In vitro hT1R1/hT1R3 umami taste receptor activation assay (FLIPR, dose response)
- Assay type: cell-based
- EXPERIMENTAL SETUP: read-out: EC50 for activation of a hT1R1/hT1R3 umami receptor expressed in an HEK293 cell line
MEASURED PROPERTY: EC50 (nM)

COMPOUND	EC50 / nM
CCCC(CCC)NC(=O)c1ccc(C)c(C)n1 [Example 91, N-(heptan-4-yl)-5,6-dimethylpicolinamide]	2800

[I] COc1ccc(C(=O)N[C@H](C)c2ccccc2)cc1Cl
[II] CCC(CC)NC(=O)/C=C/c1ccc(OCCO)cc1
[III] CCCC(COC)NC(=O)c1ccc(OCC)c(C)c1 (centres unmarked)
[IV] COC(=O)[C@@H](CC(C)C)NC(=O)c1ccc(OC)c(F)c1
Sort these compounds on EC50 so the largest reading comes first. Kindly provide the labels arranged according to the requested ordering.
II, I, III, IV
